test system: cell migration induced by MCP-1 in human promonocytic leukemia cell line, THP-1; assay: Activity for inhibiting cell migration induced by MCP-1 (THP-1 cells); format: cell-based; settings: 20 ng/ml recombinant human MCP-1, 37° C., two hours
Consider the following compounds; for each one, report its IC50.
Give bare numbers, in nM.

>>> df
                                   compound  observed
0  CCCC(=O)OC1=C(SCCCCCC(=O)OC)[C@@H](/C=C/C(O)CCCc2ccccc2)[C@H](O)C1 (stereo partly drawn) [drawing 147]       4.3
1  CCCC(=O)OC1=C(SCCCCCC(=O)OC)[C@@H](/C=C/C(O)Cc2cccc(C)c2)[C@H](O)C1 (stereo partly drawn) [drawing 154]       1.2
2  CCCC(=O)OC1=C(SCCCCCC(=O)OC)[C@@H](/C=C/C(O)Cc2ccccc2C)[C@H](O)C1 (stereo partly drawn) [drawing 162]       4.4

# batch size: 8; output IC50 per entry
1. CCCC(=O)OC1=C(CCCCCCC(=O)OC)[C@@H](/C=C/C(O)Cc2ccccc2)[C@H](O)C1 (stereo partly drawn) [drawing 167]
2. CCCC(=O)OC1=C(SCCCCCC(=O)OC)[C@@H](/C=C/C(O)Cc2cccc(OC)c2)[C@H](O)C1 (stereo partly drawn) [drawing 157]
3. CCCC(=O)OC1=C(SCCCCCC(=O)OC)[C@@H](/C=C/C(O)Cc2cccc(Cl)c2)[C@H](O)C1 (stereo partly drawn) [drawing 155]
4. CCCC(=O)OC1=C(SCCCCCC(=O)OC)[C@@H](/C=C/C(O)C(C)(C)c2ccccc2)[C@H](O)C1 (stereo partly drawn) [drawing 135]
5. CCCC(=O)OC1=C(SCCCCCC(=O)OC)[C@@H](/C=C/C(O)C(C)c2ccccc2)[C@H](O)C1 (stereo partly drawn) [drawing 140]
6. CCCC(=O)OC1=C(SCCCCCC(=O)OC)[C@@H](/C=C/C(O)Cc2cccc(C)c2)[C@H](O)C1 (stereo partly drawn) [drawing 153]
7. CCCC(=O)OC1=C(SCCCCCC(=O)OC)[C@@H](/C=C/C(O)Cc2cccc(OC)c2)[C@H](O)C1 (stereo partly drawn) [drawing 158]
8. CCCC(=O)OC1=C(SCCCCCC(=O)OC)[C@@H](/C=C/C(O)C(C)c2ccccc2)[C@H](O)C1 (stereo partly drawn) [drawing 139]

4000
33
8
100
0.021
600
2.3
6

Please state, for each entry, its recorded IC50.
1. CCCC(=O)OC1=C(SCCCCCC(=O)OC)[C@@H](/C=C/C(O)Cc2cccc(Cl)c2)[C@H](O)C1 (stereo partly drawn) [drawing 156]
2. CCCC(=O)OC1=C(SCCCCCC(=O)OC)[C@@H](/C=C/C(O)Cc2ccsc2)[C@H](O)C1 (stereo partly drawn) [drawing 152]

0.4
0.08

###

test system: cell migration induced by MCP-1 in human promonocytic leukemia cell line, THP-1; experiment: Activity for inhibiting cell migration induced by MCP-1 (THP-1 cells); format: cell-based; conditions: 20 ng/ml recombinant human MCP-1, 37° C., two hours
Exercise: state measured IC50 for each of the compounds provided.

# example entries with known answers
>>> df
                                   compound                              study_system  observed
0  CCCC(=O)OC1=C(SCCCCCC(=O)OC)[C@@H](/C=C/C(O)Cc2ccc([N+](=O)[O-])cc2)[C@H](O)C1 (stereo partly drawn) [drawing 163]  cell migration induced by MCP-1 in human promonocytic leukemia cell line, THP-1  < 0.1 µM
1  CCCC(=O)OC1=C(SCCCCCC(=O)OC)[C@@H](/C=C/C(O)Cc2ccc(Cl)cc2)[C@H](O)C1 (stereo partly drawn) [drawing 165]  cell migration induced by MCP-1 in human promonocytic leukemia cell line, THP-1  < 0.1 µM

# IC50 of CCCC(=O)OC1=C(SCCCCCC(=O)OC)[C@@H](/C=C/C(O)Cc2ccc(C)cc2)[C@H](O)C1 (stereo partly drawn) [drawing 148] = > 10 µM
